tested on: MDA-MB-468 breast; test: NCI tumour cell line growth inhibition, 48 h; in the data active = GI50 below about 0.43 µM; inactive = the rest
Could you please pick one outcome from this set? active, inactive

Ask: Recorded test call requested for `CC(=O)c1cc2c(N)c(C(=O)Nc3cccc4ccccc34)sc2nc1C`
Result: inactive

Ask: Please answer likewise for `O=C1C(Cl)=C(Nc2ccc(S(=O)(=O)c3ccc(NC4=C(Cl)C(=O)c5ccccc5C4=O)cc3)cc2)C(=O)c2ccccc21`
Result: inactive

Ask: Also `CC1(C)CC(O)CC(C)(C)N1O` ?
Result: inactive

Ask: Let us now turn to `COc1ccc2nc3ccccc3c(NCCNCCO)c2c1`
Result: active

Ask: Follow-up entry: `COC(=O)c1c(C)nc(C)c2c1C(=O)C(Br)=C(NCc1ccccc1)C2=O`
Result: inactive

Ask: Record: `Cn1c(=O)c(-c2ccccc2Cl)cc2cnc(NC3CCOCC3)nc21`
Result: inactive

Ask: Please give the result for `COc1cc(-c2nc(-c3ccccc3)c(-c3ccccc3)[nH]2)cc(OC)c1O` too.
Result: inactive

Ask: Another compound: `COc1cc(C(=O)c2cnc(-c3c[nH]c4cccc(C)c34)[nH]2)cc(OC)c1OC`
Result: active

Ask: Then `COc1cc2c(c(OC)c1OC)-c1cc(I)c(O)cc1[C@@H](NC(C)=O)CC2` ?
Result: active
